read-out: Glutathione S-transferase M3 (GSTM3), GSTM3 (gene 2947); assay: LTEA_HepaRG_GSTM3: Life Technologies and Expression Analysis (LTEA) Assay for Glutathione S-transferase M3 (GSTM3) using HepaRG (AID 2283501); conditions: mRNA level, 48 h; actives raise or lower the signal
The source made the active and inactive calls. How the source made its calls: active means hit-call score of the fitted dose curve at least 0.9, where 1 is the maximum; inactive means score below 0.9.
One label from this list, please: TRUE for active, FALSE for inactive

Solved cases (8 shown):
# fetch the recorded call for CCCN(CCOc1c(Cl)cc(Cl)cc1Cl)C(=O)n1ccnc1 here
TRUE

# fetch the recorded call for CN1CSC(=S)N(C)C1 here
FALSE

# fetch the recorded call for CC(C)N(C(=O)COc1nnc(C(F)(F)F)s1)c1ccc(F)cc1 here
FALSE

# fetch the recorded call for Oc1cc(Cl)ccc1Oc1ccc(Cl)cc1Cl here
FALSE

# fetch the recorded call for CC[C@H](C)[C@H]1O[C@]2(C=C[C@@H]1C)C[C@@H]1C[C@@H](C/C=C(\C)[C@@H](O[C@H]3C[C@H](OC)[C@@H](O[C@H]4C[C@H](OC)[C@@H](O)[C@H](C)O4)[C@H](C)O3)[C@@H](C)/C=C/C=C3\CO[C@@H]4[C@H](O)C(C)=C[C@@H](C(=O)O1)[C@]34O)O2 (tested in a mixture with another compound) here
TRUE

# fetch the recorded call for CC(C)(C)C(O)C(Oc1ccc(Cl)cc1)n1cncn1 (centres undefined) here
FALSE

# fetch the recorded call for N#Cc1c(Cl)c(Cl)c(Cl)c(C#N)c1Cl here
FALSE

# fetch the recorded call for CCOCN(C(=O)CCl)c1c(C)cccc1CC here
FALSE

Attention now shifts to the item below.
# fetch the recorded call for C#CCN1C(=O)COc2cc(F)c(N3C(=O)C4=C(CCCC4)C3=O)cc21 here
FALSE

###

read-out: serum amyloid A (SAA), SAA1 (gene 6288); assay: BSK_CASM3C_SAA: BioMAP Diversity Plus: CASM3C Assay for serum amyloid A (SAA) Biomarker Activity (AID 2283049); conditions: primary human coronary artery smooth muscle cells; actives raise or lower the signal;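 further: SAA protein level quantified by ELISA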
Calls of active or inactive are those of the source. How the source made its calls: active means hit-call score of the fitted dose curve at least 0.9, where 1 is the maximum; inactive means score below 0.9.
One label from this list, please: T = active, F = inactive

Solved cases (8 shown):
# fetch the recorded call for Cc1cc(C)nc(NC(=O)NS(=O)(=O)c2ccccc2C(=O)OC2COC2)n1 here
F

# fetch the recorded call for COc1nn(CSP(=S)(OC)OC)c(=O)s1 here
F

# fetch the recorded call for CCC(C)(NC(=O)c1cc(Cl)c(C)c(Cl)c1)C(=O)CCl (configuration not stated) here
T

# fetch the recorded call for N#Cc1c(Cl)c(Cl)c(Cl)c(C#N)c1Cl here
T

# fetch the recorded call for OCCOc1ccccc1 here
T

# fetch the recorded call for O=C1c2ccccc2C(=O)N1SC(Cl)(Cl)Cl here
F

# fetch the recorded call for Cc1[nH]c(=O)n(C(C)(C)C)c(=O)c1Cl here
F

# fetch the recorded call for CCN(CC)C(=O)SCc1ccc(Cl)cc1 here
F

Attention now shifts to the item below.
# fetch the recorded call for COC(=O)c1ccccc1CS(=O)(=O)NC(=O)Nc1nc(OC)cc(OC)n1 here
F

###

read-out: serum amyloid A (SAA), SAA1 (gene 6288); assay: BSK_CASM3C_SAA: BioMAP Diversity Plus: CASM3C Assay for serum amyloid A (SAA) Biomarker Activity (AID 2283049); settings: primary human coronary artery smooth muscle cells; actives raise or lower the signal;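 further: SAA protein level quantified by ELISA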
Calls of active or inactive are those of the source. How the source made its calls: active means hit-call score of the fitted dose curve at least 0.9, where 1 is the maximum; inactive means score below 0.9.
One label from this list, please: Y = active, N = inactive

Solved cases (5 shown):
# fetch the recorded call for CCS(=O)(=O)c1cccnc1S(=O)(=O)NC(=O)Nc1nc(OC)cc(OC)n1 here
Y

# fetch the recorded call for CC(C)OC(=O)Nc1cccc(Cl)c1 here
N

# fetch the recorded call for CN1CSC(=S)N(C)C1 here
N

# fetch the recorded call for C#CCN1C(=O)COc2cc(F)c(N3C(=O)C4=C(CCCC4)C3=O)cc21 here
N

# fetch the recorded call for O=S(=O)(O)C(F)(F)C(F)(F)C(F)(F)C(F)(F)C(F)(F)C(F)(F)C(F)(F)C(F)(F)F here
N

---
# fetch the recorded call for O=C(Nc1ccccc1)Nc1cnns1 here
N

# fetch the recorded call for Clc1ccccc1-c1nnc(-c2ccccc2Cl)nn1 here
N

# fetch the recorded call for O=C(O)COc1ccc(Cl)cc1Cl here
N

# fetch the recorded call for O=[N+]([O-])c1c(Cl)c(Cl)c(Cl)c(Cl)c1Cl here
N

# fetch the recorded call for O=[N+]([O-])/N=C1\NCCN1Cc1ccc(Cl)nc1 here
N

# fetch the recorded call for CNC(=O)CSP(=S)(OC)OC here
N

# fetch the recorded call for CCCN(CCC)c1c([N+](=O)[O-])cc(C(F)(F)F)cc1[N+](=O)[O-] here
N

###

molecular target: Estrogen receptor beta (Homo sapiens) (UniProt Q92731); assay: ATG_hERb_XSP1: Attagene TRANS-FACTORIAL Multi-Species (XSP1) HepG2 Assay for human Estrogen Receptor (ESR2) (AID 2283788)
Sequence (Q92731 whole entry, looked up): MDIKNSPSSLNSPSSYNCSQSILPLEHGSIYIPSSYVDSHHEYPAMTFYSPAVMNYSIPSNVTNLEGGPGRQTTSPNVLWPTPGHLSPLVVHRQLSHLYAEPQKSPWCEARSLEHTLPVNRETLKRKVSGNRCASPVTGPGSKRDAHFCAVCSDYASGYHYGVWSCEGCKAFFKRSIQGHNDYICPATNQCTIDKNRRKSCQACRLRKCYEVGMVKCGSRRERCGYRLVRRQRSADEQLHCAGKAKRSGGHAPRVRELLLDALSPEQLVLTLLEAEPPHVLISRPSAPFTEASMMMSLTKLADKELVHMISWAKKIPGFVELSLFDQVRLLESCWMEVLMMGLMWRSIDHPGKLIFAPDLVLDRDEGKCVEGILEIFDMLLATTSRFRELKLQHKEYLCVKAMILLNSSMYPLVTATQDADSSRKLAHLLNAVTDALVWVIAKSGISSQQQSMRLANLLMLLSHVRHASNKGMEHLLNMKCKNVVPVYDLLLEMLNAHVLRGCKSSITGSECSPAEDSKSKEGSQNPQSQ
Records with an inconclusive call do not appear. Activity calls are given as the source filed them. How the source made its calls: active means hit-call score of the fitted dose curve at least 0.9, where 1 is the maximum; inconclusive means response in the unintended direction; inactive means score below 0.9.
One label from this list, please: active, inactive

Solved cases (3 shown):
# fetch the recorded call for COP(=S)(OC)Oc1ccc(SC)c(C)c1 here
active

# fetch the recorded call for CC1(C)C(C=C(Cl)Cl)C1C(=O)OC(C#N)c1ccc(F)c(Oc2ccccc2)c1 (centres undefined) here
inactive

# fetch the recorded call for CCCN(CCOc1c(Cl)cc(Cl)cc1Cl)C(=O)n1ccnc1 here
inactive

Attention now shifts to the item below.
# fetch the recorded call for Oc1cc(Cl)ccc1Oc1ccc(Cl)cc1Cl here
inactive

###

read-out: Intercellular Adhesion Molecule 1 (ICAM1), ICAM1 (gene 3383); experiment: BSK_3C_ICAM1: BioMAP Diversity Plus: 3C Assay for Intercellular Adhesion Molecule 1 (ICAM1) Biomarker Activity (AID 2283003); conditions: primary human endothelial cells (HUVEC); actives raise or lower the signal
Active and inactive are the calls of the source. The calls were made as follows: active = hit-call score of the fitted dose curve at least 0.9, where 1 is the maximum; inactive = score below 0.9.
One label from this list, please: Yes (active), No (inactive)

Solved cases (3 shown):
# fetch the recorded call for CCC(C)(NC(=O)c1cc(Cl)c(C)c(Cl)c1)C(=O)CCl (configuration not stated) here
Yes

# fetch the recorded call for Cc1[nH]c(=O)n(C(C)(C)C)c(=O)c1Cl here
No

# fetch the recorded call for CNC(=O)Oc1ccccc1OC(C)C here
No

---
# fetch the recorded call for COc1cc(OC)nc(NC(=O)NS(=O)(=O)c2cc(NC=O)ccc2C(=O)N(C)C)n1 here
No

# fetch the recorded call for CCN(CC)C(=O)SCc1ccc(Cl)cc1 here
No

# fetch the recorded call for N#Cc1c(Cl)c(Cl)c(Cl)c(C#N)c1Cl here
Yes

# fetch the recorded call for COP(=S)(OC)Oc1ccc(SC)c(C)c1 here
No

# fetch the recorded call for CCOC1Oc2ccc(OS(C)(=O)=O)cc2C1(C)C (configuration not stated) here
No

# fetch the recorded call for CC(C)OC(=O)Nc1cccc(Cl)c1 here
No

# fetch the recorded call for COC(=O)c1ccccc1S(=O)(=O)NC(=O)Nc1nc(C)nc(OC)n1 here
No

# fetch the recorded call for CCOCN(C(=O)CCl)c1c(C)cccc1CC here
No

# fetch the recorded call for CCOc1nc(NC)nc(NC(=O)NS(=O)(=O)c2ccccc2C(=O)OC)n1 here
No

###

molecular target: chicken Estrogen Receptor (ERa), ESR1 (gene 396099) (UniProt P06212); assay: ATG_chERa_XSP2: Attagene TRANS-FACTORIAL Multi-Species (XSP2) HepG2 Assay for chicken Estrogen Receptor (ERa) (AID 2283817);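 further: actives raise reporter signal above DMSO so AC50 reflects ER activation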
Sequence (P06212 whole entry, looked up): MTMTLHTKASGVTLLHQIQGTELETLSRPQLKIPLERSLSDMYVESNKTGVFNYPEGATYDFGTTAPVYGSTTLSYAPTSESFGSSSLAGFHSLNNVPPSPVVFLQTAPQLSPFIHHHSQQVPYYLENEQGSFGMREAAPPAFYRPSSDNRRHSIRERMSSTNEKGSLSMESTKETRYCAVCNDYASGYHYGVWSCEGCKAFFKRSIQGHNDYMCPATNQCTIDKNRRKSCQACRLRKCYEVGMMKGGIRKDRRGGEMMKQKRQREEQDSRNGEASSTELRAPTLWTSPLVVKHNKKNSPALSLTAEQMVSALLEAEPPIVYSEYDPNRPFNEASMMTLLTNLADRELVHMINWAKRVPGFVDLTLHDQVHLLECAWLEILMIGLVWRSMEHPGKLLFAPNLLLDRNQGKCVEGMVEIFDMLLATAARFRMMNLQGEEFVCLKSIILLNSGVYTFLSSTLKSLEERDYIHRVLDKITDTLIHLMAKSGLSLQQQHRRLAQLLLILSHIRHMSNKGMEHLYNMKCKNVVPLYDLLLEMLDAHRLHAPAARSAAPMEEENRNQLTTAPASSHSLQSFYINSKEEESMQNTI
Results filed as inconclusive are left out. Activity calls are given as the source filed them. The calls were made as follows: active = hit-call score of the fitted dose curve at least 0.9, where 1 is the maximum; inconclusive = response in the unintended direction; inactive = score below 0.9.
One label from this list, please: y (active), n (inactive)

# fetch the recorded call for O=S1OCC2C(CO1)C1(Cl)C(Cl)=C(Cl)C2(Cl)C1(Cl)Cl (stereo not drawn) here
n

# fetch the recorded call for O=S(=O)(O)C(F)(F)C(F)(F)C(F)(F)C(F)(F)C(F)(F)C(F)(F)C(F)(F)C(F)(F)F here
n

# fetch the recorded call for Oc1cc(Cl)ccc1Oc1ccc(Cl)cc1Cl here
y

# fetch the recorded call for CC1(C)C(C=C(Cl)Cl)C1C(=O)OC(C#N)c1ccc(F)c(Oc2ccccc2)c1 (stereo not drawn) here
n

# fetch the recorded call for COP(=S)(OC)Oc1ccc(SC)c(C)c1 here
y

###

biological target: Estrogen receptor (Homo sapiens); experiment: CCTE_Deisenroth_AIME_384WELL_LUC_Inactive: CCTE's 384-well Estrogen Receptor Transactivation Assay without AIME metabolic competence (ERTA luciferase; metabolism negative), Deisenroth Lab (AID 2284038);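 further: VM7Luc4E2 breast cells given medium preincubated 2 h with S9-free microspheres; hits raise estrogen receptor luciferase signal so potencies reflect agonists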
Inconclusive results are not listed. Calls of active or inactive are those of the source. How the source made its calls: active means hit-call score of the fitted dose curve at least 0.9, where 1 is the maximum; inconclusive means response in the unintended direction; inactive means score below 0.9.
One label from this list, please: active, inactive

# fetch the recorded call for CNC(=O)Oc1ccccc1OC(C)C here
inactive

# fetch the recorded call for COP(=O)(OC)OC=C(Cl)Cl here
inactive

# fetch the recorded call for Cc1[nH]c(=O)n(C(C)(C)C)c(=O)c1Cl here
inactive

# fetch the recorded call for CCc1ccc(C(=O)NN(C(=O)c2cc(C)cc(C)c2)C(C)(C)C)cc1 here
inactive

# fetch the recorded call for CNC(=O)Oc1cccc(N=CN(C)C)c1 here
inactive

---
# fetch the recorded call for CCC(C)Nc1c([N+](=O)[O-])cc(C(C)(C)C)cc1[N+](=O)[O-] (stereo not given) here
active

# fetch the recorded call for Clc1ccccc1-c1nnc(-c2ccccc2Cl)nn1 here
inactive

# fetch the recorded call for OCCOc1ccccc1 here
active

# fetch the recorded call for O=S1OCC2C(CO1)C1(Cl)C(Cl)=C(Cl)C2(Cl)C1(Cl)Cl (stereo not given) here
active

# fetch the recorded call for CNC(=O)/C=C(\C)OP(=O)(OC)OC here
inactive
